target: Protein translocase subunit SecA (Escherichia coli (strain K12)) (UniProt P10408); assay: Assay to Identify E. coli SecA ATPase Inhibitors; assay type: functional; set-up: scale not given: direction of the effect not stated beside the values; conditions: 30 µM
Sequence (P10408 whole entry): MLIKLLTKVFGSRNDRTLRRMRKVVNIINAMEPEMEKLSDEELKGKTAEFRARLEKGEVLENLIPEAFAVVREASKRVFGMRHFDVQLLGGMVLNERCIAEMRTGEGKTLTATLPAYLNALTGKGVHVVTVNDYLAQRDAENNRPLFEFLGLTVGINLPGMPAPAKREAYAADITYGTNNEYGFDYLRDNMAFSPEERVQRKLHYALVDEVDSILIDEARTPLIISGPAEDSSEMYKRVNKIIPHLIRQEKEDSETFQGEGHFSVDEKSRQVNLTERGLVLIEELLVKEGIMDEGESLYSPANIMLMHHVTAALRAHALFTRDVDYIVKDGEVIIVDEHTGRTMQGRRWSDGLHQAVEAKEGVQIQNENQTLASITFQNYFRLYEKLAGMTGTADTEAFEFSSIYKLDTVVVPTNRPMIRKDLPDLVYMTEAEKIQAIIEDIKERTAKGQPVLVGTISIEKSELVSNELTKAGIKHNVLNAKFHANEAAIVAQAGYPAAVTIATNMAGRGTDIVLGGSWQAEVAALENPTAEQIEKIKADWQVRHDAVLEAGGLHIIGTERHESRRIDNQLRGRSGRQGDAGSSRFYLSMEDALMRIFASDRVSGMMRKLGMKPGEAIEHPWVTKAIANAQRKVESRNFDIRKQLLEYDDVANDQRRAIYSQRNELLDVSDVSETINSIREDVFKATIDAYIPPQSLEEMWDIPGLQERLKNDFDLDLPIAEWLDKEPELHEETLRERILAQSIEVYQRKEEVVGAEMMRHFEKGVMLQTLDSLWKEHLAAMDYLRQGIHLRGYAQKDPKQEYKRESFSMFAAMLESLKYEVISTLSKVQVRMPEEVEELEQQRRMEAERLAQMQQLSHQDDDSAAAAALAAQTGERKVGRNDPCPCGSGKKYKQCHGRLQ
Results with a measured potency or affinity are listed apart.
Entries and their Percent Effect

O=C1CC[C@@H]2[C@@H](CCN2Cc2ccncc2)N1c1ccccc1
-3.22%
c1ccc(CN2CC[C@]3(C[C@@H](Oc4ccccn4)CO3)C2)nc1
-4.14%
COc1ccc(CN2C[C@@H]3OCCN(c4ncccn4)[C@@H]3C2)cc1
1.18%

QUERY: Supply reported Percent Effect belonging to this molecule: COCCN1CCC2(CCCN(c3ncccn3)C2)C1 (stereo not given)
RESULT: -2.69%

QUERY: Supply reported Percent Effect belonging to this molecule: CC(Cn1cccn1)NCc1nc(-c2cccs2)no1 (stereo not given)
RESULT: -4.32%

QUERY: Supply reported Percent Effect belonging to this molecule: "O=C(Cc1c(F)cccc1F)N1CCN(CC(=O)N2CCCC2)CC1"
RESULT: -1.5%

QUERY: Supply reported Percent Effect belonging to this molecule: "O=C(NCC1CC1)[C@H]1C[C@@H]2[C@@H](C1)OCCN2Cc1cccnc1"
RESULT: -2.08%

QUERY: Supply reported Percent Effect belonging to this molecule: COc1cc(CNCC(O)c2ccc(C)cc2)cc2c1OCCO2 (stereo not given)
RESULT: -5.58%

QUERY: Supply reported Percent Effect belonging to this molecule: CNC(=O)CN1CCOCC2(CCCN(Cc3cccnc3)C2)C1 (stereo not given)
RESULT: -1.67%

QUERY: Supply reported Percent Effect belonging to this molecule: "Fc1cnc(N2CCO[C@H]3CN(CC4CCCC4)C[C@H]32)nc1"
RESULT: -2.09%

QUERY: Supply reported Percent Effect belonging to this molecule: "CCS(=O)(=O)NC[C@]12COC[C@H]1CN(Cc1cc(C)on1)C2"
RESULT: -3.29%

QUERY: Supply reported Percent Effect belonging to this molecule: "c1ccc(OC[C@H]2CCC[C@]23CN(Cc2nccs2)CCO3)nc1"
RESULT: 1.87%

====

target: Aspartate--tRNA(Asp/Asn) ligase (Mycobacterium tuberculosis (strain ATCC 25618 / H37Rv)) (UniProt P9WFW3); assay: Assay for Asp RNA synthetase-1 from Mycobacterium tuberculosis; format: functional; set-up: scale not given: direction of the effect not stated beside the values; conditions: 30 µM; further: in the data most compounds retested in dose-response had high values
Sequence (P9WFW3 whole entry): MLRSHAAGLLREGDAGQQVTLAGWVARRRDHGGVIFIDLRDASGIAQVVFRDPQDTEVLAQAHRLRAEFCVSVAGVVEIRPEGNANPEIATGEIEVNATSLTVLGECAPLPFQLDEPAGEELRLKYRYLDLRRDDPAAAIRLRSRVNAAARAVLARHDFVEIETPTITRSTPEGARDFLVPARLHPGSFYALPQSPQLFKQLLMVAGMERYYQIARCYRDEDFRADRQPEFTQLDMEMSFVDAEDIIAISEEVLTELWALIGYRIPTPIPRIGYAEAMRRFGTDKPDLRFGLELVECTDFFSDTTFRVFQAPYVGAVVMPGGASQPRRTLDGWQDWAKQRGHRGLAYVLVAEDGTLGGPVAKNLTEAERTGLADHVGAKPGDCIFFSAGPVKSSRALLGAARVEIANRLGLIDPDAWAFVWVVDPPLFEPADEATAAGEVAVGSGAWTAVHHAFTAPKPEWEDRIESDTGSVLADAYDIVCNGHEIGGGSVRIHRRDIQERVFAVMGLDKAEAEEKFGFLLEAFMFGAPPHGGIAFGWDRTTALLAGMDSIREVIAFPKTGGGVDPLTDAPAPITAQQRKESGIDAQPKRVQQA
Entries and their Percent Effect
Report only the number, with the unit % understood.

CS(=O)(=O)N1CCCCCC1C1CCN(c2ncccn2)CC1 (centres undefined)
-3.75

QUERY: Supply reported Percent Effect belonging to this compound: "CN(CCNC(=O)c1scnc1Cl)c1ccccc1"
RESULT: 2.87

QUERY: Supply reported Percent Effect belonging to this compound: OC(CN1CCN(Cc2nnc(C3CC3)o2)CC1)c1ccccc1 (centres undefined)
RESULT: -1.28

QUERY: Supply reported Percent Effect belonging to this compound: Cc1ccc(Cc2cnc(NC(=O)C3CNC(=O)N3)s2)cc1F (centres undefined)
RESULT: -6.24

====

target: Shiga toxin 2 (Escherichia coli O157:H7) (UniProt P09385+P09386); experiment: E. coli 0.157:H7 Shiga Toxin SOP - stx2 screening assay; format: functional; set-up: scale not given: direction of the effect not stated beside the values; settings: 30 µM
measurement.label: Percent Effect (%)
Report only the number, with the unit % understood.

Worked cases, Percent Effect given:
COc1ccc(Br)c(C(=O)NCCNc2ccc(C(F)(F)F)cn2)c1
23.3
O=C(NCCCN1CCc2ccccc2C1)c1cccnc1O
-68.5
CCc1nnc2n1CCN(Cc1csc(-c3cnn(C)c3)n1)C2
-29.4
CCOc1ccc(CN(C)C(=O)NC(C)c2nncn2C)cc1 (stereo unspecified)
-14.2

QUERY: Supply reported Percent Effect belonging to this compound: CCCN(CC1COc2ccccc2O1)C(=O)CCn1cncn1 (stereo unspecified)
RESULT: 34.4

QUERY: Supply reported Percent Effect belonging to this compound: CCCN1CCN(C(=O)C(C)n2cc(Br)cn2)CC1 (stereo unspecified)
RESULT: -31.6

====

Entries and their Percent Effect
biological target: Aspartate--tRNA(Asp/Asn) ligase (Mycobacterium tuberculosis (strain ATCC 25618 / H37Rv)) (UniProt P9WFW3); assay: Assay for Asp RNA synthetase-1 from Mycobacterium tuberculosis; type: functional; design: scale not given: direction of the effect not stated beside the values; conditions: 30 µM; further: in the data most compounds retested in dose-response had high values
Report only the number, with the unit % understood.

CCN(CC)CCNC(=O)c1nn(CC)cc1Cl
-6.16
CC(C)c1noc(CCC(=O)NC(C)c2nnc3n2CCCCC3)n1 (centres undefined)
0.353
COc1ccc2c(O)c(NC(=O)NCC3CC3)cnc2c1
1.09

QUERY: Supply reported Percent Effect belonging to this molecule: "CCN(Cc1ccc2c(c1)OCO2)C(=O)c1ccc(C)[nH]c1=O"
RESULT: 0.522

====

molecular target: Shiga toxin 2 (Escherichia coli O157:H7) (UniProt P09385+P09386); assay: E. coli 0.157:H7 Shiga Toxin SOP - stx2 screening assay; type: functional; design: scale not given: direction of the effect not stated beside the values; details: 30 µM
API: label(entry) gives rule met if the entry's Percent Effect is strictly smaller than -10%; on equality or larger values it gives rule not met.

Answered cases to consult:
CCc1ccc(NS(=O)(=O)CC2=NC(=O)n3cccc3C2=O)cc1
rule met
CCC(CC)c1cc(CNC(=O)N2CCCC(N(C)C)C2)on1 (stereo not drawn)
rule not met

QUERY: Lab note: confirm whether the reported Percent Effect for this compound is below -10%, equality not counting. compound: "Cn1cc(CCC(=O)N2C[C@H]3CC[C@@H]2CN(Cc2ccccc2)C3)cn1"
RESULT: rule not met

QUERY: Lab note: confirm whether the reported Percent Effect for this compound is below -10%, equality not counting. compound: O=C(NC(Cc1ccsc1)c1nccs1)C1CCOCC1 (stereo not drawn)
RESULT: rule not met

QUERY: Lab note: confirm whether the reported Percent Effect for this compound is below -10%, equality not counting. compound: "CNC(=O)N1CC[C@@H]2CN(Cc3cccnc3)S(=O)(=O)[C@@H]2CC1"
RESULT: rule not met

QUERY: Lab note: confirm whether the reported Percent Effect for this compound is below -10%, equality not counting. compound: "CCN(CC)C(=O)c1nnc2ccc(N3CCOCC3)cc2n1"
RESULT: rule met

QUERY: Lab note: confirm whether the reported Percent Effect for this compound is below -10%, equality not counting. compound: "Cc1ccc(NC2CCN(C(=O)c3c(C)noc3C)CC2)nn1"
RESULT: rule not met

QUERY: Lab note: confirm whether the reported Percent Effect for this compound is below -10%, equality not counting. compound: "CC(C)c1ncc2c(n1)CN(Cc1nc(Cc3ccccc3)no1)CC2"
RESULT: rule not met

QUERY: Lab note: confirm whether the reported Percent Effect for this compound is below -10%, equality not counting. compound: "Cc1nc(COC[C@]23COC[C@H]2CN(Cc2ccoc2)C3)cs1"
RESULT: rule not met

QUERY: Lab note: confirm whether the reported Percent Effect for this compound is below -10%, equality not counting. compound: COCC(c1cccc(C(F)(F)F)c1)N(C)C(=O)c1ccncc1 (stereo not drawn)
RESULT: rule met

QUERY: Lab note: confirm whether the reported Percent Effect for this compound is below -10%, equality not counting. compound: c1ccc(Oc2cc(CNCC3CNc4ccnn4C3)ccn2)cc1 (stereo not drawn)
RESULT: rule met

QUERY: Lab note: confirm whether the reported Percent Effect for this compound is below -10%, equality not counting. compound: "Cc1cc(CN(C)C(=O)c2cccc(N3CCCC3=O)c2)no1"
RESULT: rule met

QUERY: Lab note: confirm whether the reported Percent Effect for this compound is below -10%, equality not counting. compound: "O=C(c1cccnc1)N1C[C@@H]2CC[C@H](C1)N(Cc1cc(F)ccc1F)C2"
RESULT: rule not met

====

molecular target: Chromo domain-containing protein 1 (Saccharomyces cerevisiae (strain ATCC 204508 / S288c) (Baker's yeast)); assay: ScCHD-1 Enzyme Inhibition Assay; assay type: functional; design: scale not given: in the data most compounds retested in dose-response had high values; conditions: 30 µM
measurement.label: Percent Effect (%)
Report only the number, with the unit % understood.

QUERY: Supply reported Percent Effect belonging to this molecule: "c1ccc(CN2C[C@@H]3OCCN(c4ncccn4)[C@@H]3C2)nc1"
RESULT: -1.36

QUERY: Supply reported Percent Effect belonging to this molecule: "O=C1CO[C@@H]2CN(Cc3cccs3)C[C@H]2N1Cc1ccncc1"
RESULT: 3.61

QUERY: Supply reported Percent Effect belonging to this molecule: "Cc1c(CC(=O)N2CCN(CC(F)(F)F)CC2)nnn1-c1ccccc1"
RESULT: -1.92

QUERY: Supply reported Percent Effect belonging to this molecule: "C[C@@H]1C(=O)NC[C@H]2CN(Cc3ccsc3)C[C@H]21"
RESULT: -9.75

QUERY: Supply reported Percent Effect belonging to this molecule: "O=C1[C@H]2CN(Cc3cccs3)C[C@H]2CN1c1cncnc1"
RESULT: 1.9
